Study System: rat Y4 receptor (Rattus norvegicus)
Sequence (Q63447 whole entry): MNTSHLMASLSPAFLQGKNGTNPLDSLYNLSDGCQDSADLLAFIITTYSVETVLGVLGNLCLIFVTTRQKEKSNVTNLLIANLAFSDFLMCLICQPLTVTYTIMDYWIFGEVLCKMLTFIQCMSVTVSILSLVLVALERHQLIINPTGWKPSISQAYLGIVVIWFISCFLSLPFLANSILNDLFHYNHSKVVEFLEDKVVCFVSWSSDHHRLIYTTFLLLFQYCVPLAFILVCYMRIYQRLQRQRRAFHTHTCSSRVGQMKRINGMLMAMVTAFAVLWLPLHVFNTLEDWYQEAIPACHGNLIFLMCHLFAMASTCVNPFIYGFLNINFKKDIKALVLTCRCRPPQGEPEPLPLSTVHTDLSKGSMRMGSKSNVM
Measure Name: Ki (µM)
One number for each entry, in µM.

Prompt line: Fill blank: measured Ki of the molecule "NC(N)=NCCC[C@@H](NC(=O)C(c1ccccc1)c1ccccc1)C(=O)NCc1ccc(O)cc1" is ____.
Response line: 0.42

###

So I've got a bunch of molecules here, and I need their pKi values.
Study System: UniProt:Q15761
Sequence (Q15761 whole entry): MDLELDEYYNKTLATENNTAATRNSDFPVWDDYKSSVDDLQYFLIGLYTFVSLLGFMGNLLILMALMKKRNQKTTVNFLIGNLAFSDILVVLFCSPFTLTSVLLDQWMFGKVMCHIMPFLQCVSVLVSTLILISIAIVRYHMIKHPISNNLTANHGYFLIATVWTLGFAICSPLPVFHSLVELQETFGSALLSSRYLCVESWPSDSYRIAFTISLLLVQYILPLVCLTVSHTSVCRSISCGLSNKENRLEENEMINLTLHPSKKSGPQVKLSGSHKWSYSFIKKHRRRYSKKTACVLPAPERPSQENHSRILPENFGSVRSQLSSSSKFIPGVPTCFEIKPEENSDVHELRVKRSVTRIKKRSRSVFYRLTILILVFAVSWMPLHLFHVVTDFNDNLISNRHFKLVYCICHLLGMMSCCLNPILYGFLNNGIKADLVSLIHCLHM
Assay Text: Radioligand binding to membranes of cells expressing cloned human Y5 receptor
Design: Ki Values, Human Y5; apparent Kd; pKd; The isolated clone (CG-19) turned out to contain a full length cDNA; The longest open reading frame encodes a 455 amino acid protein
Measurement Context: read-out: Binding Affinity Ki vs. ^125I-PYY, Human Receptor Y5; Table 14; stably transfected LM(tk-) cells
Numbers only, as −log10 of the molar value.

Some molecules with known pKi results, for comparison:
>>> reading("Cl.O=S(=O)(NC[C@H]1CC[C@H](CNCc2ccc3ccccc3c2)CC1)c1ccccc1C(F)(F)F [Compound 21]")
8.01
>>> reading("Cl.O=S(=O)(NC[C@H]1CC[C@H](CNCc2cccc3ccccc23)CC1)c1ccccc1C(F)(F)F [Compound 23]")
7.59
>>> reading("Cl.Cl.Nc1ccccc1S(=O)(=O)NC[C@H]1CC[C@H](CNCC2CCc3ccccc3C2)CC1 (mixture of isomers) [Compound 22]")
7.96
>>> reading("Cl.O=[N+]([O-])c1ccccc1S(=O)(=O)NC[C@H]1CC[C@H](CNCC2CCc3ccccc3C2)CC1 (mixture of isomers) [Compound 20]")
8.08

Turning to the following molecule.
Prompt line: Fill blank: measured pKi of the molecule Cl.O=S(=O)(NC[C@H]1CC[C@H](CNCC2CCc3ccccc3C2)CC1)c1cccc2ccccc12 (mixture of isomers) [Compound 19] is ____.
Response line: 7.96

The reported numbers originate from patent US6713265B1.
